Test: Bioavailability in dog
Type: ADME, organism-based, Canis lupus familiaris
Details: in vivo
assay-readout: bioavailability

**Query** Recorded bioavailability of Cc1ccc(CNCC2(F)CCN(C(=O)c3ccc(F)c(Cl)c3)CC2)nc1 [BEFIRADOL] , please.
**Result** > 70%

###

Target: 5-hydroxytryptamine receptor 1A (Homo sapiens, UniProt P08908)
Sequence (P08908 whole entry): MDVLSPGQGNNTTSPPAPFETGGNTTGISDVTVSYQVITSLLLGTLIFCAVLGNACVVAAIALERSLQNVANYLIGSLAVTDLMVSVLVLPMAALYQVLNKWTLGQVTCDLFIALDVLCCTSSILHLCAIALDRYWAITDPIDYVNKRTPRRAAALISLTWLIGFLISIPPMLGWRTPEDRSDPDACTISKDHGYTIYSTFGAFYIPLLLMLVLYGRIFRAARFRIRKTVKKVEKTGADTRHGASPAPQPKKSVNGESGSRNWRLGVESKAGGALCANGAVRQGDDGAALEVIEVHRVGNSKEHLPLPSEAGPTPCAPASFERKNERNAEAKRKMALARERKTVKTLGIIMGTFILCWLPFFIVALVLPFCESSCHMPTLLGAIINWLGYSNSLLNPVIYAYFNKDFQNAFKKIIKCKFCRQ
Test: Agonist activity at human 5HT1A receptor expressed in C6 cells assessed as stimulation of [35S]GTPgammaS binding
pEC50: −log10 of the molar value.
The class of a record is decided solely by its measured pEC50; consult b0 (below 6), b1 (6 to below 7), b2 (7 or more)

Solved entries (count: 3):
> print(dat)
                                   molecule  category.label
1  Cc1ccc(CNCC2(F)CCN(C(=O)c3ccc(F)c(Cl)c3)CC2)nn1              b0
2  O=C(c1ccc(F)c(Cl)c1)N1CCC(F)(CNCc2ccc(CF)cn2)CC1              b1
3  CNc1nc(CNCC2(F)CCN(C(=O)c3ccc(F)c(Cl)c3)CC2)ncc1Cl              b2

**Query** Which pEC50 category applies to O=C(c1ccc(F)c(Cl)c1)N1CCC(F)(CNCc2ccc(CO)cn2)CC1 here?
**Result** b0

**Query** For O=c1[nH]c2ccccc2n1CCN1CCN(c2cccc(C(F)(F)F)c2)CC1 [FLIBANSERIN] , which pEC50 bin applies?
**Result** b1

**Query** Exercise: read the entry Cc1cnc(CNCC2(F)CCN(C(=O)c3ccc(F)c(Cl)c3)CC2)nc1 and state which class it falls under.
**Result** b1

**Query** Hey, which category is O=C(c1ccc(F)c(Cl)c1)N1CCC(F)(CNCc2ncc(C(F)F)cn2)CC1 in, do you know?
**Result** b0

**Query** Could you place CNc1ccnc(CNCC2(F)CCN(C(=O)c3ccc(F)c(Cl)c3)CC2)n1 in its proper category? Many thanks.
**Result** b1

**Query** Textbook exercise: identify the category of the molecule given here, O=C(c1ccc(F)c(Cl)c1)N1CCC(F)(CNCc2ccc(C(F)F)cn2)CC1 , according to its measured value.
**Result** b1

**Query** Hi there! Could you help me figure out the category for COc1ccnc(CNCC2(F)CCN(C(=O)c3ccc(F)c(Cl)c3)CC2)n1 please?
**Result** b1

**Query** Would you mind sorting O=C(c1ccc(F)c(Cl)c1)N1CCC(F)(CNCc2nccc(-c3ccco3)n2)CC1 into the appropriate category?
**Result** b2

Entry source: ChEMBL document CHEMBL1148798
